assay overview: Effective concentration required to achieve 50% protection of MT-4 cells against the cytopathic effect of HIV-1 virus.
Assay type: functional, cell-based
condition summary: Human immunodeficiency virus 1, MT4
assay endpoint: EC50 (nM)
Form entry: value (nM) — number only.

// recorded EC50 for "Cc1cn([C@H]2C[C@H](N=[N+]=[N-])[C@@H](CO)O2)c(=O)[nH]c1=O" : 3

EC50 for "Cc1c(Cc2ccccc2)n(COCCO)c(=O)[nH]c1=O" is 23000

// EC50 lookup, compound = "CCc1c(Cc2ccccc2)n(CCOC)c(=O)[nH]c1=O" , result: 250

Recorded result, "CC(C)c1c(Cc2ccccc2)n(COCCO)c(=O)[nH]c1=O" , EC50: 63

Every entry's value here was drawn from ChEMBL document CHEMBL1128585.
